Sourced from the supplement of paper PMC10567573

B1: PTPN9 (parent)
chain: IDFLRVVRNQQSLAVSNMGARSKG

Variants of: B1
Test: protein stability index of a GFP-peptide fusion (GPS, HEK-293T) (PSI 1-6); higher = more stable;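 also: lentivirally expressed fusions sorted by FACS into six bins by GFP to DsRed ratio, PSI derived from sequencing read proportions per bin multiplied by bin number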
Details: c terminus: a fixed tail appended
Assign class by protein stability index: not lower than 3 means true; lower than 3 means false.

Identify whether the reported protein stability index of the following variant is 3 or greater: Q10P
false

Does the variant D2F have recorded protein stability index that is 3 or more?
false

Assess whether reported protein stability index for V6E sits at 3 or higher.
true

I'd appreciate it if you could say whether L13G has protein stability index at least equal to 3.
true

# bool: protein stability index of A20T >= 3
false

Quick check: does D2M have protein stability index greater than or equal to 3?
false

Can V6F be said to have protein stability index at or above 3?
false

Dear colleague, could you confirm whether G24D has protein stability index at or above 3?
false

Assess whether reported protein stability index for R8D sits at 3 or higher.
true

State whether the measured protein stability index reaches 3, counting equality as reaching it, for V6Y
false

Could you verify whether the entry M18I shows protein stability index of no less than 3?
false
